Reference source for all entries: paper PMC11345332

Target: UniProt:B5XQE2
Sequence (B5XQE2 whole entry): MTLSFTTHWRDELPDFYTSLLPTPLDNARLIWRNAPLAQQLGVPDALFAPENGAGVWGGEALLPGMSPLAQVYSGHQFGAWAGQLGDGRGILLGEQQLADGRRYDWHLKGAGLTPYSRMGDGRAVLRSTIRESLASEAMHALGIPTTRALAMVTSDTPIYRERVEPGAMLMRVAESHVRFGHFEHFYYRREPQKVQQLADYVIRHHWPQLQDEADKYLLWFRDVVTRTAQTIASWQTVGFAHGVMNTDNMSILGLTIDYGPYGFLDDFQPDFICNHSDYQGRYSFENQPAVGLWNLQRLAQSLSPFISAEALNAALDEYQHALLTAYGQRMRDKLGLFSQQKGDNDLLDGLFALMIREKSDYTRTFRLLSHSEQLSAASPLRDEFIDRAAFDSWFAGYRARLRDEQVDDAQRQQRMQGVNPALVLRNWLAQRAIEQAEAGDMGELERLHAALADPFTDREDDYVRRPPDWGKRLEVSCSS
observable: Kd (nM)

{"molecule": "Nc1ncnc2c1ncn2[C@@H]1O[C@H](COP(=O)(O)OP(=O)(O)OP(=O)(O)O)[C@@H](O)[C@H]1O [ATP]", "observable": "Kd", "display unit": "nM", "value observed": 2930}
